Data origin, for the record: patent US8937091B2

Listed here: items and their measured inhibition at 100 µM.
- System: IICR (IP3 induced calcium release) in CHO cells
- procedureSummary: Assay of IICR (IP3 induced calcium release)-inhibiting action
- Type: cell-based, Chinese hamster
- measurementSetup: Cricetulus griseus, CHO, test compound 100 μmol; CHO cells, 10 μM ATP; read-out: IICR level (percentage of inhibition)

{"molecule": "CN(CCC(=O)c1ccc(Oc2ccccc2)cc1)Cc1ccccc1 [Example 86]", "assayedTarget": "IICR (IP3 induced calcium release) in CHO cells", "inhibition at 100 µM / %": 95}
{"molecule": "O=C(CCNc1ccccc1O)c1ccc(Br)s1 [Example 336]", "assayedTarget": "IICR (IP3 induced calcium release) in CHO cells", "inhibition at 100 µM / %": 60}
{"molecule": "O=C(CCN(CCO)CCO)c1cccs1 [Example 149]", "assayedTarget": "IICR (IP3 induced calcium release) in CHO cells", "inhibition at 100 µM / %": 80}
{"molecule": "O=C(CCN(CCO)Cc1ccccc1)c1cccnc1 [Example 177]", "assayedTarget": "IICR (IP3 induced calcium release) in CHO cells", "inhibition at 100 µM / %": 50}
{"molecule": "CN(CCC(=O)c1cccc2ccccc12)Cc1ccccc1 [Example 74]", "assayedTarget": "IICR (IP3 induced calcium release) in CHO cells", "inhibition at 100 µM / %": 70}
{"molecule": "Cc1csc(C(=O)CCN(Cc2ccccc2)C(C)C)n1 [Example 263]", "assayedTarget": "IICR (IP3 induced calcium release) in CHO cells", "inhibition at 100 µM / %": 70}
{"molecule": "Cc1cc(C(=O)CCN(CCO)CCO)c(C)s1 [Example 229]", "assayedTarget": "IICR (IP3 induced calcium release) in CHO cells", "inhibition at 100 µM / %": 0}
{"molecule": "O=C(CCN(CCO)CCO)c1ccc(Cl)s1 [Example 277]", "assayedTarget": "IICR (IP3 induced calcium release) in CHO cells", "inhibition at 100 µM / %": 20}
{"molecule": "CCCCN(CCC(=O)c1ccc(Br)s1)c1ccccc1 [Example 337]", "assayedTarget": "IICR (IP3 induced calcium release) in CHO cells", "inhibition at 100 µM / %": 0}
{"molecule": "CC(C)N(CCC(=O)c1nccs1)Cc1ccccc1 [Example 120]", "assayedTarget": "IICR (IP3 induced calcium release) in CHO cells", "inhibition at 100 µM / %": 100}
{"molecule": "O=C(CCNCCc1ccccc1)c1ccsc1 [Example 223]", "assayedTarget": "IICR (IP3 induced calcium release) in CHO cells", "inhibition at 100 µM / %": 0}
{"molecule": "O=C(CCNc1ccccc1S)c1cccs1 [Example 128]", "assayedTarget": "IICR (IP3 induced calcium release) in CHO cells", "inhibition at 100 µM / %": 10}
{"molecule": "CN(CCO)CCC(=O)c1ccncc1 [Example 262]", "assayedTarget": "IICR (IP3 induced calcium release) in CHO cells", "inhibition at 100 µM / %": 70}
{"molecule": "CCCCN(CCC(=O)c1ccco1)Cc1ccccc1 [Example 377]", "assayedTarget": "IICR (IP3 induced calcium release) in CHO cells", "inhibition at 100 µM / %": 36}

* * *

- Test system: IICR (IP3 induced calcium release) in CHO cells
- procedureSummary: Assay of IICR (IP3 induced calcium release)-inhibiting action
- Assay type: cell-based, Chinese hamster
- measurementSetup: Cricetulus griseus, CHO, test compound 100 μmol; CHO cells, 10 μM ATP; read-out: IICR level (percentage of inhibition)

{"molecule": "Cc1ccc(C(=O)CCN(Cc2ccccc2)Cc2ccccc2)o1 [Example 138]", "inhibition at 100 µM": "10%"}
{"molecule": "Cc1ccc(C(=O)CCN(Cc2ccccc2)C(C)(C)C)cc1 [Example 303]", "inhibition at 100 µM": "40%"}
{"molecule": "O=C(CCNCCCO)c1cnccn1 [Example 270]", "inhibition at 100 µM": "10%"}
{"molecule": "C=CC(=O)c1cccc2ccccc12 [Example 68, 1-acryloylnaphthalene]", "inhibition at 100 µM": "95%"}
{"molecule": "O=C(CCNCc1ccccc1)c1ccncc1 [Example 271, 2-(N-benzyl)aminoethyl-4-pyridylketone]", "inhibition at 100 µM": "40%"}
{"molecule": "CN(CCC(=O)c1ccccn1)Cc1ccccc1 [Example 77]", "inhibition at 100 µM": "30%"}
{"molecule": "Cc1nc(C)c(C(=O)CCN(CCO)C(C)C)s1 [Example 257]", "inhibition at 100 µM": "20%"}
{"molecule": "Cn1cccc1C(=O)CCN(Cc1ccccc1)C(C)(C)C [Example 165]", "inhibition at 100 µM": "0%"}
{"molecule": "O=C(CCNCCS)c1ccc(Oc2ccccc2)cc1 [Example 112]", "inhibition at 100 µM": "40%"}
{"molecule": "Cc1nc(C)c(C(=O)CCN(Cc2ccccc2)C(C)C)s1 [Example 219]", "inhibition at 100 µM": "100%"}
{"molecule": "CCN(CCC(=O)c1ccncc1)Cc1ccccc1 [Example 209]", "inhibition at 100 µM": "50%"}
{"molecule": "NCCCCN(CCCN)CCC(=O)c1ccc(Br)s1 [Example 344]", "inhibition at 100 µM": "30%"}
{"molecule": "O=C(CCN(CCO)Cc1ccccc1)c1ccc[nH]1 [Example 173]", "inhibition at 100 µM": "80%"}
{"molecule": "Cc1csc(C(=O)CCN(CCO)Cc2ccccc2)c1 [Example 323]", "inhibition at 100 µM": "30%"}
{"molecule": "CC(C)N(CCO)CCC(=O)c1ccc[nH]1 [Example 170]", "inhibition at 100 µM": "0%"}
{"molecule": "CCN(CCO)CCC(=O)c1ccc(Br)s1 [Example 331]", "inhibition at 100 µM": "70%"}
{"molecule": "CCCCN(CCO)CCC(=O)c1nc(C)cs1 [Example 264]", "inhibition at 100 µM": "70%"}
{"molecule": "O=C(CCN1CCCCC1)c1ccccn1 [Example 95, 2-piperidinoethyl-2-pyridylketone]", "inhibition at 100 µM": "10%"}
{"molecule": "CCN(CCO)CCC(=O)c1cc(C)sc1C [Example 228]", "inhibition at 100 µM": "20%"}
{"molecule": "COC(=O)C(CSSCC(NCCC(=O)c1nccs1)C(=O)OC)NCCC(=O)c1nccs1 (centres unmarked) [Example 400]", "inhibition at 100 µM": "13%"}
{"molecule": "CCN(CCC(=O)c1ccc(Br)s1)Cc1ccccc1 [Example 301]", "inhibition at 100 µM": "90%"}
{"molecule": "CC(C)(C)N(CCO)CCC(=O)c1ccco1 [Example 123]", "inhibition at 100 µM": "70%"}
{"molecule": "O=C(CCN1CCC(CCO)CC1)c1ccc(Br)s1 [Example 361]", "inhibition at 100 µM": "19%"}
{"molecule": "O=C(CCNC(CO)Cc1ccccc1)c1ccc(Br)s1 (centres unmarked) [Example 357]", "inhibition at 100 µM": "70%"}
{"molecule": "O=C(CCN1CCN(c2ccco2)CC1)c1ccc(F)cc1 [Example 211]", "inhibition at 100 µM": "20%"}
{"molecule": "CN(CCC(=O)c1ccsc1)Cc1ccccc1 [Example 236]", "inhibition at 100 µM": "80%"}
{"molecule": "CCCCN(CCO)CCC(=O)c1ccc(Br)s1 [Example 293]", "inhibition at 100 µM": "90%"}
{"molecule": "O=C(CCNCCS)c1ccc(Br)s1 [Example 335]", "inhibition at 100 µM": "70%"}
{"molecule": "COC(=O)C(CSSCC(NCCC(=O)c1ccc2c(c1)Cc1ccccc1-2)C(=O)OC)NCCC(=O)c1ccc2c(c1)Cc1ccccc1-2 (centres unmarked) [Example 404]", "inhibition at 100 µM": "94%"}
{"molecule": "Cc1ccc(C(=O)CCN(Cc2ccccc2)C(C)C)cc1 [Example 65]", "inhibition at 100 µM": "30%"}
{"molecule": "CN(CCO)CCC(=O)c1cccn1C [Example 167]", "inhibition at 100 µM": "0%"}
{"molecule": "O=C(CCN(CCO)CCO)c1ccc(Br)s1 [Example 330]", "inhibition at 100 µM": "50%"}

* * *

- Test system: IICR (IP3 induced calcium release) in CHO cells
- procedureSummary: Assay of IICR (IP3 induced calcium release)-inhibiting action
- Assay type: cell-based, Chinese hamster
- measurementSetup: Cricetulus griseus, CHO, test compound 30 μmol; CHO cells, 10 μM ATP; read-out: IICR level (percentage of inhibition)
Mark label 0 for inhibition at 30 µM values under 20%, and label 1 for everything at or above.

{"itemSmiles": "O=C(CCNCCc1ncc[nH]1)c1cccnc1", "classAssignment": "label 1"}
{"itemSmiles": "O=C(CCN(c1ccccc1)c1ccccc1)c1ccc2ccccc2c1", "classAssignment": "label 0"}
{"itemSmiles": "O=C(CCN(CCO)Cc1ccccc1)c1ccccn1", "classAssignment": "label 1"}
{"itemSmiles": "CCN(CCO)CCC(=O)c1cc(C)c(C)o1", "classAssignment": "label 0"}
{"itemSmiles": "CC(C)(C)N(CCC(=O)c1ncccc1Br)Cc1ccccc1", "classAssignment": "label 1"}
{"itemSmiles": "CC(C)(C)N(CCC(=O)c1ccc(C#N)cc1)Cc1ccccc1", "classAssignment": "label 1"}
{"itemSmiles": "O=C(CCN(CCO)CCO)c1ccc(Cl)s1", "classAssignment": "label 0"}
{"itemSmiles": "CN(CCO)CCC(=O)c1ccccn1", "classAssignment": "label 0"}
{"itemSmiles": "CC(C)(C)N(CCC(=O)c1nccs1)Cc1ccccc1", "classAssignment": "label 1"}
